outcome_measure: melting point

| compound | melting point |
| --- | --- |
| Nc1cccc(CSCCNC(=O)c2c(Cl)cccc2Cl)c1 | 55 to 56 °C |
| O=C(c1c(F)cccc1F)N1CNCN(c2ccc(Oc3ccc(C(F)(F)F)cc3Cl)cc2F)C1=O | 135 to 137 °C |
| O=C(Cc1cccs1)Nc1cccc2nc(N[C@@H]3CCc4ccccc43)ccc12 | 164 °C |
| O=P(O)(c1ccc(S(=O)(=O)c2ccccc2)cc1)c1ccc(S(=O)(=O)c2ccccc2)cc1 | 155 to 165 °C |
| COc1cc(C(C)(C)CNC(=O)c2ccccc2)cc2c1OC(C)(C)C2 | 109 to 110 °C |

Entry `Cc1oc(-c2ccccc2)nc1COc1ccc(CO)nc1` has what melting point? 125 to 126 °C

Fill in the blank: the reported melting point of `C=CC[C@H](NS(=O)(=O)c1ccc(OC)cc1)C(=O)OC(C)(C)C` is ____. 58 to 59 °C

Field request: melting point | item: `NC(=O)NS(=O)(=O)c1ccccc1Cl` 160 to 163 °C

Which melting point value belongs to `C#CCn1nnc(SC(c2ccccc2)c2ccccc2)n1` ? 85 to 86 °C

* * *

outcome_measure: melting point

Solved entries (count: 2):
| compound | melting point |
| --- | --- |
| CC(=O)c1ccc(S(=O)(=O)Nc2cccnc2Nc2ccccc2)cc1 | 171 to 173 °C |
| CNc1ccccc1CS(=O)c1nccn1-c1cc(C)ccn1 (centres undefined) | 112 to 114 °C |

// query melting point value for entry `C[C@@H](NC(=O)c1noc(-c2ccc(Cl)cc2)n1)[C@](O)(Cn1cncn1)c1ccc(F)cc1F` 79 to 83 °C

Item under review: Cc1cccc(C)c1OC(C)C(=O)OC1CC(O)C=C2C=CC(C)C(CCC3CC(O)CC(=O)O3)C21 (mixture of isomers) . Reported melting point? 85 to 88 °C

* * *

In this section we review reported melting point values for a set of molecules.

Here's what some known entries look like.
| molecule | outcome_measure | result |
| --- | --- | --- |
| CC(=O)OC1(C)CCC2C3C(C#N)CC4=CC(=O)CCC4(C)C3CCC21C (centres undefined) | melting point | 211 to 216 °C |
| C#CCn1c(=O)[nH]c(=O)n(-c2cc(N3C(=O)C4=C(CCCC4)C3=O)c(F)cc2Cl)c1=O | melting point | 127 to 135 °C |
| CCOC(=O)Nc1nc(C)c(-c2nc3ccccc3c(=O)n2-c2ccc(C)cc2)s1 | melting point | 220 to 222 °C |
| NS(=O)(=O)c1ccc(-c2c(F)c(F)c(F)c(F)c2-c2ccc(F)cc2)cc1 | melting point | 202 to 203 °C |
| Cc1cnc(C2=NC(C)(C(C)C)C(=O)N2)c(C(=O)c2ccc(C)s2)c1 (centres undefined) | melting point | 173 to 175 °C |

I would be grateful if you could share the reported melting point for CC(C)(C)[Si](OCC1CSC2=C(O1)c1ccccc1C(=O)C2=O)(c1ccccc1)c1ccccc1 (centres undefined) . 205 to 210 °C

Query (molecule): `CN(c1ccc(Cl)nc1)S(C)(=O)=O` ; field requested: melting point 87 to 90 °C

Could you tell me which melting point is on file for Cc1cc2c(cc1N1CCc3ccccc31)OC(=O)C2C (centres undefined) ? 176 to 178 °C

Data request, read-out melting point, for `COc1ccc2oc(Cc3cccnc3)c(CCNC(C)=O)c2c1` 117 °C

* * *

Measured melting point accompanies every entry in the list below.

Below: 10 molecules and their reported melting point.
| molecule | result |
| --- | --- |
| N#Cc1cc(N)n(-c2c(Cl)cc(C(F)(F)F)cc2Cl)n1 | 117 to 118 °C |
| COC(=O)c1ncc(C)cc1S(N)(=O)=O | 86 to 88 °C |
| COc1ccc(N2CCN(C)CC2)c2c1CC[C@H](NC(=O)c1ccc(N3CCOCC3)cc1)C2 | 229 to 232 °C |
| FC1(Cl)Oc2cc3nc(C(Cl)(Cl)Cl)[nH]c3cc2OC1(F)Cl (configuration not stated) | > 230 °C |
| CC(C)(C)c1cc(-c2nn(CCCBr)c(=O)o2)cc(C(C)(C)C)c1O | 130 to 131 °C |
| CCOC(=O)c1cnc(Cc2ccc(OC)c(OC)c2)c2cc(OC)c(OC)cc12 | 117 to 119 °C |
| CC(C)[C@H](N)C(=O)NC(=O)N(CCCl)N=O | 115 to 117 °C |
| CC(=O)c1ccc(Br)c(S(N)(=O)=O)c1 | 161 °C |
| Clc1ccc2c(c1)C(c1ccccc1)=NCc1nnc(Br)n1-2 | 206 °C |
| CCOC(=O)/C=C(\C)Cl | 58 to 60 °C |

As a next step, examine the molecule that follows.
Name the reported melting point value associated with the molecule `Cc1nc(-c2ccccn2)n2cn[nH]c(=O)c12` 295 to 297 °C

* * *

Listing: melting point of selected compounds

Please review the following examples before continuing.
| compound | melting point |
| --- | --- |
| CCc1cccc(C)c1NCN1CCOC1=O | 56 to 57.5 °C |
| COc1c(OCCOc2ccc(C(C)(C)C)cc2)ccnc1C | 84 to 87 °C |
| CCOC(=O)NCCOC(=O)COc1cc(Oc2ccc(C(F)(F)F)cc2Cl)ccc1[N+](=O)[O-] | 94 to 95 °C |
| NC(=O)c1ccc(N2CCN(CCC3C=Cc4ccccc43)CC2)cc1 (centres undefined) | 207 °C |
| Cc1nc2c(cc1C(=O)NC(=N)N)CCCCC2O (centres undefined) | 207 to 210 °C |

Any idea what melting point was measured for `CC(=O)Nc1cc(Oc2ccc3c(C(=O)Nc4ccc(N5CCC[C@H](N)C5)c(C(F)(F)F)c4)cccc3c2)ncn1` ? 218 to 228 °C

If you can, please state the reported melting point value of CCCCCCCCCCCCCCCCCCNC(=O)OCC(CNS(=O)(=O)CCCCl)NC(=O)OC(C)(C)C (centres undefined) . 112 to 115 °C

I'd like to know its melting point. The compound in question is `O=c1c(Cc2ccccc2)c2n(c(=O)n1CCCCSc1cccc3nccn13)CCCS2(=O)=O` 53 to 54 °C

Given the entry OC(CSCc1ccc(Cl)cc1)(Cn1cncn1)c1ccc(Cl)cc1Cl (centres undefined) , report its measured melting point. 106 to 107 °C

* * *

Reported values of melting point for individual entries

Study these solved cases before continuing.
| compound | melting point |
| --- | --- |
| Cc1cnc2n1-c1cc(Cl)c(Cl)cc1N=C(c1ccc(-n3c(C)nc4cnccc43)cc1)C2 | 243 to 246 °C |
| CCc1c(C(=O)N(O)O)cc(C(C)(C)C)c(O)c1C(C)(C)C | 147 to 150 °C |

# get_value(readout='melting point', item= `CC(C)c1ccc(-c2nccc(-c3ccc(C(=O)O)cc3)n2)cc1` ) 262 to 264 °C

# input compound: CCOC(=O)C[C@@H]1CCCC[C@H]1n1nc(-c2c(-c3ccccc3)nn3ccccc23)ccc1=O (relative stereo) ; wanted: its melting point 151 to 152 °C

Param item = FC(F)(F)CN1CCOC(CN2c3ccccc3C=Cc3ccccc32)C1 (stereo not given) ; retrieve measured melting point. 97 to 98 °C

I have this compound here, O=C(O)C(O)Cc1ccccc1[N+](=O)[O-] (stereo not given) , and I need its recorded melting point. 95 to 98 °C

I have this compound here, `CN(CC#N)Cc1nc(-c2cc(C(C)(C)C)c(O)c(C(C)(C)C)c2)cs1` , and I need its recorded melting point. 150 to 156 °C

* * *

// reported melting point for each item listed

| compound | result |
| --- | --- |
| N#CCCNC(=O)c1cccc(-c2cccc3c(F)c(Cc4cccc(C(F)(F)F)c4)sc23)c1 | 66 to 67 °C |

Param item = COc1ccc2cc([C@H](C)C(=O)OCCS(=O)CCOC(=O)OC(C)O[N+](=O)[O-])ccc2c1 (stereo not given in full) ; retrieve measured melting point. 112 to 115 °C

Given CC(=O)OC1CCC2C3CCC4CC(=O)CC(C)C4(C)C3CCC12C (stereo not given) , state its recorded melting point. 179 to 180 °C

Field request: melting point | item: `CCOC(=O)COc1ccc(NS(C)(=O)=O)cc1C` 83 to 84 °C

Which melting point value is on record for `COC(=O)Cc1sc(SCc2cc(O)nc(C)n2)nc1C` ? 130 to 132 °C

Which measured melting point value corresponds to `Oc1cc(O)cc(CN/C=C2\CN=Cc3ccc(Br)cc32)c1` ? 263 to 264 °C

* * *

The entries below come with measured melting point values attached.

| compound | outcome_measure | result |
| --- | --- | --- |
| OC1(Cc2ccccc2)CCN(CCC#Cc2ccccc2)CC1 | melting point | 80 to 82 °C |

Param item = `CS(=O)(=O)c1ccc(-c2cc(CCCO[N+](=O)[O-])nn2C2CCCCC2)cc1` ; retrieve measured melting point. 77 °C

May I ask what melting point has been recorded for Cc1ccc2c(c1)[C@@H]1CN(C)CC[C@@H]1CC2=O (relative stereo) ? > 250 °C

Data request, read-out melting point, for COc1ccc(C(O)c2cccc3c2ccn3S(=O)(=O)c2ccc(C)cc2)cc1 (stereo unspecified) 90 °C

Reported melting point, compound `Cc1csc2nc(S(=O)(=O)Nc3ccccc3Cl)nn12` : ____ 172 to 174 °C

For the compound shown here, COc1ccc(/C=C/C(=O)C2C(=O)CC(c3ccc(OC)cc3)C([N+](=O)[O-])C2c2ccc(OC)c(OC)c2)cc1 (stereo unspecified) , give the reported melting point. 126 to 128 °C

Quick check: melting point of `C=CCNC(=O)[C@H]1NCSC1(C)C` ? 45 to 47 °C

// returns reported melting point for input N[C@@H](Cc1ccc(C(F)(F)F)cc1)[C@H](O)c1ccccc1 (racemic) 64 to 65 °C

What does the record list as melting point for `CC1(C)OC(=S)Nc2ccc(-c3csc(C#N)c3)cc21` ? 242 to 243 °C

Look up melting point for this compound: `COc1ccc(Br)c(OC)c1-c1ccc(C[C@H](NC(=O)c2c(Cl)cccc2Cl)C(=O)O)cc1` 205 to 206 °C

Return reported melting point; argument: `CCCCOc1ccc(-c2ccc([C@@]3(CC(=O)O)CCCCS3(=O)=O)s2)cc1` 179 to 180 °C

// lookup melting point for `FC(F)(F)c1cccc(Oc2cccc(-c3nnc(Nc4ccc(Cl)c(Cl)c4)s3)c2)c1` 212 to 213 °C
